Ref: patent US20090117124A1

# reported IgE concentration detected; entries follow
test-target: T1, cynomolgus monkey IgE (in cynomolgus serum, Harlan Sera-Lab Ltd) (cynomolgus monkey)
T1 construct: Serum was the source of IgE; eight serum samples; also called cynomolgus IgE; Cyno 1 to Cyno 8 serum samples
test-details: capture ELISA, Test 1, Cyno 1
Enter your answer as a number in ng/mL; do not include the unit.

>>> value_observed("5.396.1 (recombinant) (antibody, human IgG2, kappa, V domains shown, Fully human IgG2 kappa, expressed in 293 Freestyle cells; also called recombinant 5.396.1) VH: QVQLQQWGAGLLKPSETLSLTCAVYGGSFSGYYWSWIRQPPGKGLEWIGEIHHSGSTNYNPSLKSRVTISVDTSKNQFSLKLSSVTAADTAVYYCARDNWNDSFYYYYGMDVWGQGTTVTVSS VL: DIQMTQSPSSLSASVGDRVTITCRASQGISNHLAWFQQKPGKAPKSLIYAASSLQSGVPSKFSGSGSGTDFTLTISSLQPEDFATYYCQQYNRHPFTFGPGTKVDIKR")
30
>>> value_observed("6.605.1 (recombinant) (antibody, human IgG2, kappa, V domains shown, Human IgG2 kappa; leader omitted; also called recombinant 6.605.1) VH: QVHLVQSGAEVKMPGASVKVSCKASGYTFTSYGISWVRQAPGQGLEWMGWISAYNGNTNYAQKLQGRITMTTDTSTSTAYMDLRSLRSDDTAVYYCARDGDYYDPFDYWGQGTLVTVSS VL: DIQMTQSPSSLSASVGDRVTITCRTSQSISNWLNWYQQKPGKAPKLLIYGASTLKSGVPSRFSGSESGTDFTLTISSLQPEDFATYYCQQSYSTPPTFGQGTKVEIKR")
120
>>> value_observed("6.605.1 Hc-H3Q, M13K, D82E Lc-T25A, T53S (antibody, human IgG2, kappa, V domains shown, Human IgG2 kappa; leader omitted; also called 6.605.1 (H3Q, M13K, D82E-T25A, T53S); 6.605.1 QKE/AS) VH: QVQLVQSGAEVKKPGASVKVSCKASGYTFTSYGISWVRQAPGQGLEWMGWISAYNGNTNYAQKLQGRITMTTDTSTSTAYMELRSLRSDDTAVYYCARDGDYYDPFDYWGQGTLVTVSS VL: DIQMTQSPSSLSASVGDRVTITCRASQSISNWLNWYQQKPGKAPKLLIYGASSLKSGVPSRFSGSESGTDFTLTISSLQPEDFATYYCQQSYSTPPTFGQGTKVEIKR")
133

// next entry
Asked: Return value of IgE concentration detected for input 5.396.1 Hc-S103N Lc-K61R (antibody, human IgG2, kappa, V domains shown, Human IgG2 kappa; leader omitted; also called 5.396.1 (S103N/K61R); 5.396.1 S103N/K61R) VH: QVQLQQWGAGLLKPSETLSLTCAVYGGSFSGYYWSWIRQPPGKGLEWIGEIHHSGSTNYNPSLKSRVTISVDTSKNQFSLKLSSVTAADTAVYYCARDNWNDNFYYYYGMDVWGQGTTVTVSS VL: DIQMTQSPSSLSASVGDRVTITCRASQGISNHLAWFQQKPGKAPKSLIYAASSLQSGVPSRFSGSGSGTDFTLTISSLQPEDFATYYCQQYNRHPFTFGPGTKVDIKR , no commentary.
Given back: 41
